experimentalProtocol: absolute recovery over mixed-bed multilayer solid-phase extraction; higher = better recovery
testConditions: surface water; enrichment method: SPE
observable: absolute recovery

Below: 3 molecules and their reported absolute recovery.
Nc1ccc(S(=O)(=O)[N-]c2nccs2)cc1 [Sulfathiazol]
91.4%
Oc1cc(Cl)ccc1Oc1ccc(Cl)cc1Cl [Triclosan]
90.7%
O=C(Nc1ccc(F)cc1F)c1cccnc1Oc1cccc(C(F)(F)F)c1 [Diflufenican]
92.4%

Query molecule follows.
Ask: Look up absolute recovery for this molecule: CCN(CC)C(=O)C(C)Oc1cccc2ccccc12 (centres undefined) [Napropamid]
Reply: 90.8%

----------
experimentalProtocol: absolute recovery over mixed-bed multilayer solid-phase extraction; higher = better recovery
testConditions: nanopure water; enrichment method: SPE
observable: absolute recovery (%)
Give bare numbers, in %.

Below: 5 molecules and their reported absolute recovery.
COc1nc(NC(C)C)nc(NC(C)C)n1
88.1
Clc1ccccc1C[NH+]1CCc2sccc2C1
83.9
CC(Oc1ccc(Oc2ncc(C(F)(F)F)cc2Cl)cc1)C(=O)[O-] (stereo not drawn)
84.3
c1ccc2[nH]c(-c3cscn3)nc2c1
79.2
COc1nc(NC(=O)[N-]S(=O)(=O)c2ccccc2C(F)(F)F)nc(C(F)(F)F)n1
97

Batch request: absolute recovery per item, same order as input.
1. Nc1[nH]c2ccccc2[nH+]1
2. COCC(=O)N(c1c(C)cccc1C)C(C)C(=O)OC (stereo not drawn) [Metalaxyl]
3. CC(C)N(Cc1ccccc1)C(=O)C(C)(C)C

Reply:
1: 90.5; 2: 96.6; 3: 85.7

----------
experimentalProtocol: absolute recovery over mixed-bed multilayer solid-phase extraction; higher = better recovery
testConditions: wastewater effluent; enrichment method: SPE
observable: absolute recovery (%)
Numbers only, in %.

C[NH+]1CCC23c4c5ccc(O)c4OC2C(O)C=CC3C1C5 (stereo not given) [Morphin]
87.9

Batch request: absolute recovery per item, same order as input.
1. O=C(Nc1ccc(Cl)cc1)Nc1ccc(Cl)c(Cl)c1 [Triclocarban]
2. CCCCOc1ccc(OCCC[NH+]2CCOCC2)cc1 [Pramoxine]
3. CCOc1nc2cccc(C(=O)[O-])c2n1Cc1ccc(-c2ccccc2-c2nnn[n-]2)cc1 [Candesartan]
4. CC(C)(C(=O)[O-])c1ccc(C(O)CCC[NH+]2CCC(C(O)(c3ccccc3)c3ccccc3)CC2)cc1 (stereo not given) [Fexofenadin]

Reply:
[91.3, 89.4, 90.7, 91.4]

----------
Field: absolute recovery. Provide a value for each of the compounds that follow.
experimentalProtocol: absolute recovery over vacuum-assisted evaporative concentration; higher = better recovery
testConditions: wastewater influent; enrichment method: VEC
Answers are plain numbers, in %.

CS(=O)(=O)c1ccc(C(=O)[C-]2C(=O)CCCC2=O)c(Cl)c1COCC(F)(F)F
116
O=C([O-])C[NH+](CCC[NH+](CC(=O)[O-])CC(=O)[O-])CC(=O)[O-]
117

Batch request: absolute recovery per item, same order as input.
1. O=S(=O)([O-])c1ccc2ccc(S(=O)(=O)[O-])cc2c1
2. CCCOC(=O)NCCC[NH+](C)C
3. CCCc1nc2c(C)cc(-c3nc4ccccc4n3C)cc2n1Cc1ccc(-c2ccccc2C(=O)[O-])cc1
4. CN1C(=O)CC(C)(c2ccccc2)C1=O (centres undefined) [Methsuximide]
5. OC(Cc1ccccc1Cl)(Cn1cncn1)C1(Cl)CC1 (centres undefined)
6. OCC1OC(OC2(CCl)OC(CCl)C(O)C2O)C(O)C(O)C1Cl (centres undefined)
7. C[NH2+]C(C)C(=O)c1ccc(C)cc1 (centres undefined)

Reply:
[112, 105, 82.1, 85.5, 128, 108, 71.4]
